src = patent US20170037110A1

# TARGET SYSTEM: T1, HLA-A*02:01 (human)
# T1 construct: monomers captured on streptavidin plates; also called MHC class I
# METHOD NOTES: UV peptide exchange ELISA
PARAMETER MEASURED: peptide exchange yield

Per the records, this binder ( ILANDGVLLAA ) has peptide exchange yield equal to 50 to 75%

Entry MTLGQIYYL — recorded peptide exchange yield = 50 to 75%

For TVTNAVVTV the binder record lists peptide exchange yield as 50 to 75%

// field: peptide exchange yield; key: KLLNKIYEA ; value = ≥ 75%
